procedure.summary: […]
For each entry below, report its pEC50 value.

Here's what some known entries look like.
CNCCNC(=O)c1c(NC(=O)Cn2nc(C(F)(F)F)c3c2CCCC3)sc2c1CCCC2 = 5.7
Cc1sc(NC(=O)Cn2nc(C(F)(F)F)c3c2CCCC3)c(C(N)=O)c1C = 6.1
NC(=O)c1c(NC(=O)Cn2nc(C(F)(F)F)c3c2CCCC3)sc2c1CCNC2 = 5.3
NC(=O)c1c(NC(=O)Cn2nc(C(F)(F)F)c3c2CCCC3)sc2c1CCOC2 = 6.7
NCCNC(=O)c1c(NC(=O)Cn2nc(C(F)(F)F)c3c2CCCC3)sc2c1CCCC2 = 5.8

Now examine the next entry.
// pEC50 lookup, compound = O=C(Cn1nc(C(F)(F)F)c2c1CCCC2)Nc1sc2c(c1C(=O)NCC1CNC1)CCCC2 , result: 6.2

###

Please provide measured microsomal CLint for the entries that follow.
procedure.summary: Intrinsic clearance in human liver microsomes
Assay type: ADME, Microsome
One number for each entry, in µL/min/mg.

NC(=O)c1c(NC(=O)Cn2nc(C(F)(F)F)cc2C(F)(F)F)sc2c1CCCC2 = 174

Now look at this entry.
Sure, the documented microsomal CLint for NCCCNC(=O)c1c(NC(=O)Cn2nc(C(F)(F)F)c3c2CCCC3)sc2c1CCCC2 is 17

###

procedure.summary: […]
Mark no (0) for pEC50 values under 6, and yes (1) for everything at or above.

NC(=O)c1c(NC(=O)Cn2c(C(F)(F)F)nc3ccccc32)sc2c1CCCC2 = no (0)
O=C(Cn1nc(C(F)(F)F)c2c1CCCC2)Nc1sc2c(c1C(=O)NC1CC1)CCCC2 = yes (1)
NC(=O)c1c(CO)csc1NC(=O)Cn1nc(C(F)(F)F)c2c1CCCC2 = no (0)
O=C(Cn1nc(C(F)(F)F)c2c1CCCC2)Nc1sc2c(c1C(=O)N[C@H]1CCNC1)CCCC2 = no (0)
O=C(Cn1nc(C(F)(F)F)c2c1CCCC2)Nc1sc2c(c1C(=O)NC1CNC1)CCCC2 = yes (1)

Q: Quick check, pEC50 >= 6? CS(=O)(=O)NCCNC(=O)c1c(NC(=O)Cn2nc(C(F)(F)F)c3c2CCCC3)sc2c1CCCC2
A: yes (1)

Q: Tell me whether pEC50 is at least 6 here: NC(=O)c1ccsc1NC(=O)Cn1nc(C(F)(F)F)c2c1CCCC2
A: no (0)

Q: Please tell me: is the compound Cc1cc(C)n(CC(=O)Nc2sc3c(c2C(N)=O)CCCC3)n1 at or over 6 in terms of pEC50?
A: no (0)

###

procedure.summary: […]
Tick fulfilled if pEC50 is 6 or greater. Tick not fulfilled if pEC50 is less than 6.

Solved entries:
NCCCNC(=O)c1c(NC(=O)Cn2nc(C(F)(F)F)c3c2CCCC3)sc2c1CCCC2 = fulfilled
CCc1c(C)sc(NC(=O)Cn2nc(C(F)(F)F)c3c2CCCC3)c1C(N)=O = fulfilled
CCNC(=O)c1c(NC(=O)Cn2nc(C(F)(F)F)c3c2CCCC3)sc2c1CCCC2 = fulfilled
CN(C)CCNC(=O)c1c(NC(=O)Cn2nc(C(F)(F)F)c3c2CCCC3)sc2c1CCCC2 = not fulfilled
O=C(Cn1nc(C(F)(F)F)c2c1CCCC2)Nc1sc2c(c1C(=O)N[C@@H]1CCNC1)CCCC2 = fulfilled

Then there is this molecule:
Q: Quick check: does NC(=O)c1c(NC(=O)Cn2ccc(C(F)(F)F)n2)sc2c1CCCC2 have pEC50 greater than or equal to 6?
A: not fulfilled

Measured values drawn from ChEMBL document CHEMBL1255564 for this set.
